Origin of the recorded values: patent US6709873B1

PROTOCOL_DESCRIPTION: Relative concentrations of Rapa metabolites in pooled whole blood patient samples (LC/MS)
Assay type: in vivo
CONDITION_SUMMARY: Rapa = 1
MEASURED_ATTRIBUTE: Relative Concentration in whole blood

{"columns": ["SMI", "Relative Concentration in whole blood"],
 "data": [
  ["CO[C@@H]1C[C@H](C[C@@H](C)[C@@H]2CC(=O)[C@H](C)/C=C(\\C)[C@@H](O)[C@@H](OC)C(=O)[C@H](C)C[C@H](C)/C=C/C=C/C=C(\\C)[C@@H](O)C[C@@H]3CC[C@@H](C)[C@@](O)(O3)C(=O)C(=O)N3CCCC[C@H]3C(=O)O2)CC[C@H]1O", 0.10]
]}

A: CO[C@H]1C[C@@H]2CC[C@@H](C)[C@@](O)(O2)C(=O)C(=O)N2CCCC[C@H]2C(=O)O[C@H]([C@H](C)C[C@@H]2CC[C@@H](O)[C@H](O)C2)CC(=O)[C@H](C)/C=C(\C)[C@@H](O)[C@@H](OC)C(=O)[C@H](C)C[C@H](C)/C=C/C=C/C=C/1C
B: CO[C@H]1C[C@@H]2CC[C@@H](C)[C@@](O)(O2)C(=O)C(=O)N2CCCC[C@H]2C(=O)O[C@H]([C@H](C)C[C@@H]2CC[C@@H](O)[C@H](O)C2)CC(=O)[C@H](C)/C=C(\C)[C@@H](O)[C@@H](O)C(=O)[C@H](C)C[C@H](C)/C=C/C=C/C=C/1C
C: CO[C@H]1C[C@@H]2CC[C@@H](C)[C@@](O)(O2)C(=O)C(=O)N2CCCC[C@H]2C(=O)O[C@H]([C@H](C)C[C@@H]2CC[C@@H](O)[C@H](OC)C2)CC(=O)[C@H](C)/C=C(\C)[C@@H](O)[C@@H](OC)C(=O)[C@H](C)C[C@H](C)/C=C/C=C/C=C/1C
[in] Rank the items in ascending order with respect to Relative Concentration in whole blood. // ordering of labels required in reply
[out] B, A, C

----------
The entries below come with measured Percent inhibition of MoAb R-1-5 values attached.
Test system: MoAb R-1-5
PROTOCOL_DESCRIPTION: Inhibition ELISA of MoAb R-1-5
Format: binding, mouse
CONDITION_SUMMARY: tissue culture supernatant
API: value field is a number in %; no unit string.

Examples from the recorded data:
{"columns": ["COMPOUND", "UNIT_INFO", "VALUE_MEASURED"],
 "data": [
  ["CO[C@@H]1C[C@H](C[C@@H](C)[C@@H]2CC(=O)[C@H](C)/C=C(\\C)[C@@H](O)[C@@H](OC)C(=O)[C@H](C)C[C@H](C)/C=C/C=C/C=C(\\C)[C@@H](O)C[C@@H]3CC[C@@H](C)[C@@](O)(O3)C(=O)C(=O)N3CCCC[C@H]3C(=O)O2)CC[C@H]1O", "%", 56],
  ["C=CCC1C=C(C)CC(C)CC(O)C2OC(O)(C(=O)C(=O)N3CCCCC3C(=O)OC(C(C)=CC3CCC(O)C(O)C3)C(C)C(O)CC1=O)C(C)CC2OC (stereo not drawn)", "%", 26],
  ["C=CCC1C=C(C)CC(C)CC(OC)C2OC(O)(C(=O)C(=O)N3CCCCC3C(=O)OC(C(C)=CC3CCC(O)C(O)C3)C(C)C(O)CC1=O)C(C)CC2OC (stereo not drawn)", "%", 26],
  ["CO[C@H]1C[C@@H]2CC[C@@H](C)[C@@](O)(O2)C(=O)C(=O)N2CCCC[C@H]2C(=O)O[C@H]([C@H](C)C[C@@H]2CC[C@@H](O)[C@H](O)C2)CC(=O)[C@H](C)/C=C(\\C)[C@@H](O)[C@@H](O)C(=O)[C@H](C)C[C@H](C)/C=C/C=C/C=C/1C", "%", 44]
]}

[in] So what Percent inhibition of MoAb R-1-5 did C=CCC1C=C(C)CC(C)CC(O)C2OC(O)(C(=O)C(=O)N3CCCCC3C(=O)OC(C(C)=CC3CCC(O)C(OC)C3)C(C)C(O)CC1=O)C(C)CC2OC (stereo not drawn) get with MoAb R-1-5?
[out] 36

[in] Follow-up entry: C=CCC1C=C(C)CC(C)CC(OC)C2OC(O)(C(=O)C(=O)N3CCCCC3C(=O)OC(C(C)=CC3CCC(O)C(O)C3)C(C)C(O)CC1=O)C(C)CC2O (stereo not drawn)
[out] 38

[in] Follow-up entry: `CO[C@H]1C[C@@H]2CC[C@@H](C)[C@@](O)(O2)C(=O)C(=O)N2CCCC[C@H]2C(=O)O[C@H]([C@H](C)C[C@@H]2CC[C@@H](O)[C@H](O)C2)CC(=O)[C@H](C)/C=C(\C)[C@@H](O)[C@@H](OC)C(=O)[C@H](C)C[C@H](C)/C=C/C=C/C=C/1C`
[out] 57

[in] Follow-up entry: C=CCC1C=C(C)CC(C)CC(OC)C2OC(O)(C(=O)C(=O)N3CCCCC3C(=O)OC(C(C)=CC3CCC(O)C(OC)C3)C(C)C(O)CC1=O)C(C)CC2O (stereo not drawn)
[out] 24

[in] Follow-up entry: `C=CC[C@@H]1/C=C(\C)C[C@H](C)C[C@H](OC)[C@H]2O[C@@](O)(C(=O)C(=O)N3CCCC[C@H]3C(=O)O[C@H](/C(C)=C/[C@@H]3CC[C@@H](O)[C@H](OC)C3)[C@H](C)[C@@H](O)CC1=O)[C@H](C)C[C@@H]2OC`
[out] 33

----------
System: MoAb R-2-2
PROTOCOL_DESCRIPTION: Inhibition ELISA of MoAb R-2-2
Assay type: binding, mouse
CONDITION_SUMMARY: tissue culture supernatant
MEASURED_ATTRIBUTE: Percent inhibition of MoAb R-2-2 (%)
API: value field is a number in %; no unit string.

{"columns": ["COMPOUND", "UNIT_INFO", "Percent inhibition of MoAb R-2-2"],
 "data": [
  ["CO[C@H]1C[C@@H]2CC[C@@H](C)[C@@](O)(O2)C(=O)C(=O)N2CCCC[C@H]2C(=O)O[C@H]([C@H](C)C[C@@H]2CC[C@@H](O)[C@H](O)C2)CC(=O)[C@H](C)/C=C(\\C)[C@@H](O)[C@@H](O)C(=O)[C@H](C)C[C@H](C)/C=C/C=C/C=C/1C", "%", 10],
  ["C=CC[C@@H]1/C=C(\\C)C[C@H](C)C[C@H](OC)[C@H]2O[C@@](O)(C(=O)C(=O)N3CCCC[C@H]3C(=O)O[C@H](/C(C)=C/[C@@H]3CC[C@@H](O)[C@H](OC)C3)[C@H](C)[C@@H](O)CC1=O)[C@H](C)C[C@@H]2OC", "%", 16],
  ["C=CCC1C=C(C)CC(C)CC(OC)C2OC(O)(C(=O)C(=O)N3CCCCC3C(=O)OC(C(C)=CC3CCC(O)C(OC)C3)C(C)C(O)CC1=O)C(C)CC2O (stereo not drawn)", "%", 19],
  ["C=CCC1C=C(C)CC(C)CC(OC)C2OC(O)(C(=O)C(=O)N3CCCCC3C(=O)OC(C(C)=CC3CCC(O)C(O)C3)C(C)C(O)CC1=O)C(C)CC2O (stereo not drawn)", "%", 13],
  ["CO[C@H]1C[C@@H]2CC[C@@H](C)[C@@](O)(O2)C(=O)C(=O)N2CCCC[C@H]2C(=O)O[C@H]([C@H](C)C[C@@H]2CC[C@@H](O)[C@H](O)C2)CC(=O)[C@H](C)/C=C(\\C)[C@@H](O)[C@@H](OC)C(=O)[C@H](C)C[C@H](C)/C=C/C=C/C=C/1C", "%", 71]
]}

[in] So what does the record say about Percent inhibition of MoAb R-2-2 for C=CCC1C=C(C)CC(C)CC(O)C2OC(O)(C(=O)C(=O)N3CCCCC3C(=O)OC(C(C)=CC3CCC(O)C(O)C3)C(C)C(O)CC1=O)C(C)CC2OC (stereo not drawn) ?
[out] 13

[in] Follow-up entry: C=CCC1C=C(C)CC(C)CC(O)C2OC(O)(C(=O)C(=O)N3CCCCC3C(=O)OC(C(C)=CC3CCC(O)C(OC)C3)C(C)C(O)CC1=O)C(C)CC2OC (stereo not drawn)
[out] 16

[in] Follow-up entry: C=CCC1C=C(C)CC(C)CC(OC)C2OC(O)(C(=O)C(=O)N3CCCCC3C(=O)OC(C(C)=CC3CCC(O)C(O)C3)C(C)C(O)CC1=O)C(C)CC2OC (stereo not drawn)
[out] 9

[in] Follow-up entry: `CO[C@@H]1C[C@H](C[C@@H](C)[C@@H]2CC(=O)[C@H](C)/C=C(\C)[C@@H](O)[C@@H](OC)C(=O)[C@H](C)C[C@H](C)/C=C/C=C/C=C(\C)[C@@H](O)C[C@@H]3CC[C@@H](C)[C@@](O)(O3)C(=O)C(=O)N3CCCC[C@H]3C(=O)O2)CC[C@H]1O`
[out] 26
